Measured values drawn from patent US20140066488A1 for this set.

Molecular target: β-secretase in neuroblastoma cells (Homo sapiens, UniProt P56817)
Sequence (P56817 46-501): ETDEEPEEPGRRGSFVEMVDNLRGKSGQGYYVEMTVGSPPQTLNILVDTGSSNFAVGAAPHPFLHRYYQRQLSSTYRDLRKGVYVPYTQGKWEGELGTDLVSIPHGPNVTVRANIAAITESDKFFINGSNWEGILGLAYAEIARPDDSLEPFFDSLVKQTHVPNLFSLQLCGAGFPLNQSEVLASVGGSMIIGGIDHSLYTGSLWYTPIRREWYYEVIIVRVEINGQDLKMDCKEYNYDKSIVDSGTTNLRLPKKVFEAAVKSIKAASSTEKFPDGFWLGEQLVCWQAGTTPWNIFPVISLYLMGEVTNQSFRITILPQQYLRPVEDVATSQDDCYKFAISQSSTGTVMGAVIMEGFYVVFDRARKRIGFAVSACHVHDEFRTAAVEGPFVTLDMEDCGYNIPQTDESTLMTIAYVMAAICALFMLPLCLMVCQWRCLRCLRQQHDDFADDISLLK
MEASUREMENT LABEL: IC50 (µM)
One number for each entry, in µM.

// lookup IC50 for CCC[C@H](O)[C@H](NC[C@H](Cc1ccccc1)NC(=O)c1cc2c3c(c1)c(CC)cn3CC1(CC1)S(=O)(=O)N2C)C(=O)NCC(C)C [Inhibitor 22]
0.014

* * *

Biological target: recombinant β-secretase (BACE 1, memapsin 2) (Homo sapiens, UniProt P56817)
Sequence (P56817 46-501): as above
Assay: BACE 1 enzyme inhibitory assay against recombinant β-secretase
Settings: read-out: Ki (nM) BACE 1; recombinant β-secretase
MEASUREMENT LABEL: Ki (nM)
Give bare numbers, in nM.

Your task in this section: give Ki for each listed record.
1. CCc1cn2c3c(cc(C(=O)N[C@H](CN[C@H](C(=O)NCC(C)C)[C@H](C)O)Cc4ccccc4)cc13)N(C)S(=O)(=O)CC2
2. CCC[C@H](O)[C@H](NC[C@H](Cc1ccccc1)NC(=O)c1cc2c3c(c1)c(CC)cn3CCS(=O)(=O)N2C)C(=O)NCC(C)C
3. CC[C@H](NC[C@H](Cc1ccccc1)NC(=O)c1cc(C(=O)N[C@H](C)c2ccccc2)cc(N(C)S(C)(=O)=O)c1)C(=O)NCC(C)C
4. CO[C@@H](C)[C@H](NC[C@H](Cc1ccccc1)NC(=O)c1cc(C(=O)N[C@H](C)c2ccccc2)cc(N(C)S(C)(=O)=O)c1)C(=O)NCC(C)C
5. CCc1cn2c3c(cc(C(=O)N[C@H](CN[C@H](C(=O)NCC(C)C)[C@H](C)O)Cc4ccccc4)cc13)N(C)S(=O)(=O)C1(CC1)C2
6. CCC[C@H](O)[C@H](NC[C@H](Cc1ccccc1)NC(=O)c1cc2c3c(c1)c(CC)cn3CC(C)(C)S(=O)(=O)N2C)C(=O)NCC(C)C

1. 7.3
2. 0.4
3. 27
4. 25
5. 7.2
6. 0.036
